Biological target: UniProt:P25099
Assay: Antagonism of adenosine A1 receptor assessed from the ability to inhibit binding of [3H]cyclohexyladenosine to rat cerebral cortical membranes
pIC50: −log10 of the molar value.
So basically: pIC50 at 4 or higher? That is true. Lower than 4? That is false.

[[record]]
compound = "CCC1C(=O)N(CC)C2SC(C)=NN2C1=O (configuration not stated)"
answer_label = "false"

[[record]]
compound = "CCN1C(=O)C(C)C(=O)N2N=CSC12 (configuration not stated)"
answer_label = "true"

[[record]]
compound = "CCCC1C(=O)N(CC(C)C)C2Sc3ccccc3N2C1=O (configuration not stated)"
answer_label = "true"

[[record]]
compound = "CCC1C(=O)SC2N(C)C=CN2C1=O (configuration not stated)"
answer_label = "false"

[[record]]
compound = "CCC1C(=O)N2C=CSC2N(Cc2ccccc2)C1=O (configuration not stated)"
answer_label = "false"

[[record]]
compound = "CCN1C(=O)C(Cc2ccccc2)C(=O)N2N=CSC12 (configuration not stated)"
answer_label = "true"


---

Biological target: Adenosine receptor A1 (Rattus norvegicus, UniProt P25099)
Sequence (P25099 whole entry): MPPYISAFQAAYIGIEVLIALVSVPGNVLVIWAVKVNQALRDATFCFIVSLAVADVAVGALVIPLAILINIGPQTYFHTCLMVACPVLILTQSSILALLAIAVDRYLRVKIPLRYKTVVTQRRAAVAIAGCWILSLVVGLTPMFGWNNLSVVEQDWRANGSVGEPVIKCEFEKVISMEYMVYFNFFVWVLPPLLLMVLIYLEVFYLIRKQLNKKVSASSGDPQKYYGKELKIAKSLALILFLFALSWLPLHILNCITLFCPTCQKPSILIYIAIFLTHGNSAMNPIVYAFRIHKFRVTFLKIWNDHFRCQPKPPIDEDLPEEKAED
Assay: Antagonism of adenosine A1 receptor assessed from the ability to inhibit binding of [3H]cyclohexyladenosine to rat cerebral cortical membranes
pIC50: −log10 of the molar value.
Property Measured: pIC50

[[record]]
compound = "CCC1C(=O)N2C=CSC2N(Cc2cc(OC)cc(OC)c2)C1=O (stereo not given)"
property_measured = "pIC50"
result_operator = "="
observed_value = 4.02

[[record]]
compound = "CCCC1C(=O)N(C)C2N(C)C=NN2C1=O (stereo not given)"
property_measured = "pIC50"
result_operator = "<"
observed_value = 3.60

[[record]]
compound = "O=C1C(Cc2ccccc2)C(=O)N(CC2CC2)C2SC=CN12 (stereo not given)"
property_measured = "pIC50"
result_operator = "="
observed_value = 3.80

[[record]]
compound = "CCC1C(=O)N(CC)C2SC=NN2C1=O (stereo not given)"
property_measured = "pIC50"
result_operator = "="
observed_value = 4.14

[[record]]
compound = "CCC1C(=O)N2C=CSC2N(CC2CC2)C1=O (stereo not given)"
property_measured = "pIC50"
result_operator = "="
observed_value = 4.00

[[record]]
compound = "O=c1c2[nH]cnc2n(Cc2ccccc2)c(=O)n1Cc1ccccc1"
property_measured = "pIC50"
result_operator = "="
observed_value = 5.15

[[record]]
compound = "CCC1C(=O)N(CC(C)C)C2Sc3ccccc3N2C1=O (stereo not given)"
property_measured = "pIC50"
result_operator = "="
observed_value = 4.39

[[record]]
compound = "CCC1C(=O)N2C=Cc3ccccc3C2N(CC)C1=O (stereo not given)"
property_measured = "pIC50"
result_operator = "="
observed_value = 4.57

[[record]]
compound = "CCn1c(=O)c2nc[nH]c2n(CC)c1=O"
property_measured = "pIC50"
result_operator = "="
observed_value = 5.19

[[record]]
compound = "CCN1C(=O)CC(=O)N2N=CSC12 (stereo not given)"
property_measured = "pIC50"
result_operator = "="
observed_value = 3.96

[[record]]
compound = "CCCn1c(=O)c2nc[nH]c2n(CCC)c1=O"
property_measured = "pIC50"
result_operator = "="
observed_value = 5.82

[[record]]
compound = "CCN1C(=O)C(Cc2ccc(Cl)cc2)C(=O)N2N=CSC12 (stereo not given)"
property_measured = "pIC50"
result_operator = "="
observed_value = 4.35

[[record]]
compound = "CCCCCN1C(=O)C(C)C(=O)N2N=CSC12 (stereo not given)"
property_measured = "pIC50"
result_operator = "="
observed_value = 3.92

[[record]]
compound = "CCCC1C(=O)N2C=CSC2N(CCC)C1=O (stereo not given)"
property_measured = "pIC50"
result_operator = "="
observed_value = 4.27

[[record]]
compound = "CCC1C(=O)N2C=CSC2N(CC)C1=O (stereo not given)"
property_measured = "pIC50"
result_operator = "="
observed_value = 3.92

